Ref: ChEMBL document CHEMBL1153560

test system: Porphyromonas asaccharolytica; experiment: Antibacterial activity against Porphyromonas asaccharolyticus isolated from patient with diabetic foot infection after 44 to 48 hrs by agar dilution method; format: functional
property_name: MIC90

| mol_smiles | property_name | value_observed |
| --- | --- | --- |
| CCC[C@@H]1C[C@@H](C(=O)N[C@@H]([C@H]2O[C@H](SC)[C@H](O)[C@@H](O)[C@H]2O)[C@H](C)Cl)N(C)C1 | MIC90 | 64 µg/mL |
| C[C@@H](O)[C@H]1C(=O)N2C(C(=O)O)=C(S[C@@H]3CN[C@H](CNS(N)(=O)=O)C3)[C@H](C)[C@H]12 | MIC90 | 0.03 µg/mL |
| C[C@@H](O)[C@H]1C(=O)N2C(C(=O)O)=C(S[C@@H]3CN[C@H](C(=O)N(C)C)C3)[C@H](C)[C@H]12 | MIC90 | ≤ 0.015 µg/mL |

====

test system: Porphyromonas asaccharolytica; experiment: Antibacterial activity against Porphyromonas asaccharolyticus isolated from patient with diabetic foot infection after 44 to 48 hrs by agar dilution method; assay type: functional

| compound | MIC90 |
| --- | --- |
| C[C@@H](O)[C@H]1C(=O)N2C(C(=O)O)=C(S[C@@H]3CN[C@H](C(=O)Nc4cccc(C(=O)O)c4)C3)[C@H](C)[C@H]12 | 0.06 µg/mL |
| Cc1ncc([N+](=O)[O-])n1CCO | 0.25 µg/mL |
| C[C@@H](O)[C@H]1C(=O)N2C(C(=O)O)=C(SCCNC=N)C[C@H]12 [IMIPENEM ANHYDROUS] | ≤ 0.015 µg/mL |

====

Attribute: MIC50
tested on: Streptococcus dysgalactiae subsp. equisimilis; assay: Antibacterial activity against Streptococcus dysgalactiae subsp. equisimilis isolated from patient with diabetic foot infection after 18 to 24 hrs by broth microdilution method; format: functional

| compound | MIC50 |
| --- | --- |
| CCC[C@@H]1C[C@@H](C(=O)N[C@@H]([C@H]2O[C@H](SC)[C@H](O)[C@@H](O)[C@H]2O)[C@H](C)Cl)N(C)C1 | 0.125 µg/mL |
| C[C@@H](O)[C@H]1C(=O)N2C(C(=O)O)=C(SCCNC=N)C[C@H]12 [IMIPENEM ANHYDROUS] | ≤ 0.015 µg/mL |
| C[C@@H](O)[C@H]1C(=O)N2C(C(=O)O)=C(S[C@@H]3CN[C@H](C(=O)Nc4cccc(C(=O)O)c4)C3)[C@H](C)[C@H]12 | ≤ 0.015 µg/mL |
| C[C@@H](O)[C@H]1C(=O)N2C(C(=O)O)=C(S[C@@H]3CN[C@H](CNS(N)(=O)=O)C3)[C@H](C)[C@H]12 | ≤ 0.015 µg/mL |
| C[C@@H](O)[C@H]1C(=O)N2C(C(=O)O)=C(S[C@@H]3CN[C@H](C(=O)N(C)C)C3)[C@H](C)[C@H]12 | ≤ 0.015 µg/mL |
